- tested_system: T1, human transferrin receptor (recombinant, for surface plasmon resonance) (human, UniProt P02786 89-760)
- T1 construct: also called huTfR; human transferrin receptor-biotinylated
- T1 sequence (P02786 89-760 limits assumed): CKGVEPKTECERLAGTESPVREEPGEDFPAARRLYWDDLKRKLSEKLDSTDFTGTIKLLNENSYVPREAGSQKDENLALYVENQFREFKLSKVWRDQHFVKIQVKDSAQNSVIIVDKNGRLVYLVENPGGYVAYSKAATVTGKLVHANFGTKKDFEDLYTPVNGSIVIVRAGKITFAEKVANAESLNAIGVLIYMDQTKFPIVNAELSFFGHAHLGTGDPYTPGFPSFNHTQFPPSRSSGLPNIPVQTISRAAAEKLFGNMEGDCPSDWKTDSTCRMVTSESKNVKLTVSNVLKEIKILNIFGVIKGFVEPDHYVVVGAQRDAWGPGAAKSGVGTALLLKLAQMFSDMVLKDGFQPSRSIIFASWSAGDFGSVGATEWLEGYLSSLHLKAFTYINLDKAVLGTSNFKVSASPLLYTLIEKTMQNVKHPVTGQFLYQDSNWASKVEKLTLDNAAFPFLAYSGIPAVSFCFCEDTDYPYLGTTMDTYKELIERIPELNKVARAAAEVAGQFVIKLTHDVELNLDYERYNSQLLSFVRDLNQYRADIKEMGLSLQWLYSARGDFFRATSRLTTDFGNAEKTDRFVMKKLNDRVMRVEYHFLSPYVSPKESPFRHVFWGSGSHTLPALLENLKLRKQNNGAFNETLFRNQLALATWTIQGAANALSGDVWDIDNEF
- assay_info: SPR B4000 25C
recorded_endpoint: koff (s⁻¹)

INSERT INTO assay_data (binder, recorded_endpoint, result) VALUES
  ('VH23-DASG/VL09-NYA (SEQ ID NO 192/193) (antibody, V domains shown, also called VH23-DASG/VK9-NYA) VH: QSMQESGPGLVKPSQTLSLTCTVSGFSLSSYAMSWIRQHPGKGLEWIGYIWSGGSTDYASWAKSRVTISKTSTTVSLKLSSVTAADTAVYYCARRYGTSYPDYGDASGFDPWGQGTLVTVSS VL: AIQLTQSPSSLSASVGDRVTITCRASQSISSYLAWYQQKPGKAPKLLIYRASTLASGVPSRFSGSGSGTDFTLTISSLQPEDFATYYCQQNYASSNVDNTFGGGTKVEI', 'koff', 0.0395);
